pKi: −log10 of the molar value.
This section presents pKi values reported for Dipeptidyl peptidase 9 (Homo sapiens, UniProt Q86TI2) in the literature.

In [3]: df
Out[3]:
                           molecular_string  measurement_label  value_reported
0  Cc1nc2cc(-c3ccco3)nn2c(-c2ccc(Cl)cc2Cl)c1CN                pKi          < 4.52
1  Cc1nc2nc(N3CCCC3)nn2c(-c2ccc(Cl)cc2Cl)c1CN                pKi          < 4.52
2  Cc1ccc(-c2cc3nc(C)c(CN)c(-c4ccc(Cl)cc4Cl)n3n2)cc1                pKi          < 5.00

Prompt: Give pKi (Dipeptidyl peptidase 9 (Homo sapiens, UniProt Q86TI2)) of the following compound: "Cc1nc2nc(N3CCSCC3)nn2c(-c2ccc(Cl)cc2Cl)c1CN"
Response: < 4.52

Prompt: // map "COc1ccccc1-c1cn2c(-c3ccccc3Cl)c(CN)c(C)nc2n1" to recorded pKi (system: Dipeptidyl peptidase 9 (Homo sapiens, UniProt Q86TI2))
Sequence (Q86TI2 whole entry): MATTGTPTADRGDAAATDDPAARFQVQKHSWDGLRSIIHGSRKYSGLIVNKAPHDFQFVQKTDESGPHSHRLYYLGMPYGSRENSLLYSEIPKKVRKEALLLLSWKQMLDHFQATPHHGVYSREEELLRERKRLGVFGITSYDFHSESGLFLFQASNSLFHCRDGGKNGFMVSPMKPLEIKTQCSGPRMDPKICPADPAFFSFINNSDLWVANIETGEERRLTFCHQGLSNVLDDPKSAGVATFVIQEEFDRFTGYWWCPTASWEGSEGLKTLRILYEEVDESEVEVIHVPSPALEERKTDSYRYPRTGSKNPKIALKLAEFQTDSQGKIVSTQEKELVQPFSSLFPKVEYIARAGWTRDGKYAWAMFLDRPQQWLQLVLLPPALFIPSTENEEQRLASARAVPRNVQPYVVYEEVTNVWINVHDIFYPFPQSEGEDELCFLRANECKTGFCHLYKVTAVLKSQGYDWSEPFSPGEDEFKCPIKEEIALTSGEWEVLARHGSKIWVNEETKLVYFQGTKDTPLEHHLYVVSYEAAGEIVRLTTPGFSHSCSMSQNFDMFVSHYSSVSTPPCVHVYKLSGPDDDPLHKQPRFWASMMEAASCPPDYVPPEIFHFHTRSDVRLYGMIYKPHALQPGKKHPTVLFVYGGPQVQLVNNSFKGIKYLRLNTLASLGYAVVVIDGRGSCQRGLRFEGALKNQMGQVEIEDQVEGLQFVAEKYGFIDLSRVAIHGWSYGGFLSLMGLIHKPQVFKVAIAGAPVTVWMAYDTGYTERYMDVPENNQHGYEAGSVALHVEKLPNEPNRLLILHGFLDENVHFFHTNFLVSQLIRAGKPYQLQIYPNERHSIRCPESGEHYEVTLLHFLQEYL
Response: < 5.00

Prompt: Give pKi (Dipeptidyl peptidase 9 (Homo sapiens, UniProt Q86TI2)) of the following compound: "Cc1nc2nc(C(=O)NCCN3CCCCC3)cn2c(-c2ccc(Cl)cc2Cl)c1CN"
Response: < 4.52

Prompt: Missing value: pKi, Dipeptidyl peptidase 9 (Homo sapiens, UniProt Q86TI2), entry "COc1ccccc1-c1cn2c(-c3ccc(Cl)cc3)c(CN)c(C)nc2n1" . Fill in?
Response: < 4.52
